// data source = patent US20140196172A1

Test system: Caco-2 (human colonic epithelial cell line)
Assay Summary: Uptake of labeled peptides by Caco-2 cells, photometric cell imaging
Format: cell-based
Reported Conditions: labeled peptide 9 μM, 1 hr; background about 1×10^5 counts/sec
Procedure: Caco-2 and F1112 cells are cultured in Dulbecco's Modified Eagle Medium (DMEM) containing 10% (v/v) fetal bovine serum (FBS) and 50 μg/ml gentamycin at 37° C. in a 95% humidified atmosphere containing 5% CO2. […] Uptake of labeled peptides by cells is quantified using a photometric detector/cell-imaging system (PTI). […] A time-based scan is then performed at the optimal excitation and emission wavelength to quantify total uptake, using about 20 cells/view/replicate.
Readout Label: Photometric Cell Imaging (average counts/sec) Caco-2

Sequence Input | Reported Value
MAAWMRSLFSPLKKLWIRMH (Zea mays) [mTP2] | 420000 counts/sec
MFSYLPRYPLRAASARALVRATRPSYRSALLRYQ (listed as Triticum aestivum) [mTP1] | 1200000 counts/sec
MKLLWRLILSRKW (listed as Arabidopsis thaliana) [mTP3] | 1200000 counts/sec

# input Given the entry MWWRRSRTNSLRYT (listed as Arabidopsis thaliana) [mTP4] , report its measured Photometric Cell Imaging (average counts/sec) Caco-2.
# output 1200000 counts/sec

# input Suppose we examine the sequence MLFRLRRSVRLRGLLA (listed as Arabidopsis thaliana) [mTP5] ; what Photometric Cell Imaging (average counts/sec) Caco-2 value has been reported?
# output 650000 counts/sec

====

Tested on: tobacco protoplasts
Assay Summary: Incubation of tobacco protoplasts with fluorescently labeled peptides, confocal microscopy
Type: cell-based, Nicotiana benthamiana
Reported Conditions: fluorescein-labelled peptide 20 μM, 1 hour, confocal (Olympus)
Description: Nicotiana benthamiana plants are grown for 6-8 weeks and kept in the dark for 24 hrs prior to all experiments. All pipetting is done slowly with wide bore pipette tips to prevent protoplast lysis. […]
Readout Label: Organelle localization

Check out these entries, answers already filled in.
Sequence Input | Organelle localization
MGGCVSTPKSCVGAKLR (listed as Arabidopsis thaliana) [cTP1] | localize to chloroplasts
MQTLTASSSVSSIQRHRPHPAGRRSSSVTFS (listed as Triticum aestivum) [cTP2] | localize to chloroplasts
MAALIPAIASLPRAQVEKPHPMPVSTRPGLVS (listed as Triticum aestivum) [cTP4] | localize to chloroplasts
MAAWMRSLFSPLKKLWIRMH (Zea mays) [mTP2] | localize to mitochondria
MKLLWRLILSRKW (listed as Arabidopsis thaliana) [mTP3] | localize to mitochondria

Shift focus to the following entry.
# input Name the recorded Organelle localization for MSSPPPLFTSCLPASSPSIRRDSTSGSVTSPLR (listed as Arabidopsis thaliana) [cTP5] .
# output localize to chloroplasts

====

Here the recorded Photometric Cell Imaging (average counts/sec) Caco-2 is given for each entry.
Tested on: Caco-2 (human colonic epithelial cell line)
Assay Summary: Uptake of labeled peptides by Caco-2 cells, photometric cell imaging
Type: cell-based
Reported Conditions: labeled peptide 17 μM, 1 hr; background about 1×10^5 counts/sec
Give your result in counts/sec as a bare value.

Reference set, count: 4
Sequence Input | Reported Value
MFSYLPRYPLRAASARALVRATRPSYRSALLRYQ (listed as Triticum aestivum) [mTP1] | 1600000
MLFRLRRSVRLRGLLA (listed as Arabidopsis thaliana) [mTP5] | 1600000
MAAWMRSLFSPLKKLWIRMH (Zea mays) [mTP2] | 490000
MWWRRSRTNSLRYT (listed as Arabidopsis thaliana) [mTP4] | 1600000

API: the following record is the query input.
# input Endpoint output: Photometric Cell Imaging (average counts/sec) Caco-2 of MKLLWRLILSRKW (listed as Arabidopsis thaliana) [mTP3] . Value?
# output 1600000

====

We begin with a simple list: items and their reported Average concentration of labeled peptide measured in cells, MG.
System: MG (bovine mammary gland) cells
Assay Summary: Uptake of labeled peptides by MG cells, photometric cell imaging
Assay type: cell-based
Reported Conditions: cells exposed to labeled peptide at 17 μM
Kindly provide the numeric value in nm only, without the unit symbol.

Sequence Input | Reported Value
MAAWMRSLFSPLKKLWIRMH (Zea mays) [mTP2] | 62
MKLLWRLILSRKW (listed as Arabidopsis thaliana) [mTP3] | 62
MWWRRSRTNSLRYT (listed as Arabidopsis thaliana) [mTP4] | 58
MFSYLPRYPLRAASARALVRATRPSYRSALLRYQ (listed as Triticum aestivum) [mTP1] | 78

Proceed to the following item.
# input Report Average concentration of labeled peptide measured in cells, MG for MLFRLRRSVRLRGLLA (listed as Arabidopsis thaliana) [mTP5] please.
# output 60
